Origin of values: the kinase profiling compilation of Christmann-Franck et al. (2016)

System: FLT3 (human), P36888 [ITD]
Sequence (P36888 whole entry, looked up, change not shown): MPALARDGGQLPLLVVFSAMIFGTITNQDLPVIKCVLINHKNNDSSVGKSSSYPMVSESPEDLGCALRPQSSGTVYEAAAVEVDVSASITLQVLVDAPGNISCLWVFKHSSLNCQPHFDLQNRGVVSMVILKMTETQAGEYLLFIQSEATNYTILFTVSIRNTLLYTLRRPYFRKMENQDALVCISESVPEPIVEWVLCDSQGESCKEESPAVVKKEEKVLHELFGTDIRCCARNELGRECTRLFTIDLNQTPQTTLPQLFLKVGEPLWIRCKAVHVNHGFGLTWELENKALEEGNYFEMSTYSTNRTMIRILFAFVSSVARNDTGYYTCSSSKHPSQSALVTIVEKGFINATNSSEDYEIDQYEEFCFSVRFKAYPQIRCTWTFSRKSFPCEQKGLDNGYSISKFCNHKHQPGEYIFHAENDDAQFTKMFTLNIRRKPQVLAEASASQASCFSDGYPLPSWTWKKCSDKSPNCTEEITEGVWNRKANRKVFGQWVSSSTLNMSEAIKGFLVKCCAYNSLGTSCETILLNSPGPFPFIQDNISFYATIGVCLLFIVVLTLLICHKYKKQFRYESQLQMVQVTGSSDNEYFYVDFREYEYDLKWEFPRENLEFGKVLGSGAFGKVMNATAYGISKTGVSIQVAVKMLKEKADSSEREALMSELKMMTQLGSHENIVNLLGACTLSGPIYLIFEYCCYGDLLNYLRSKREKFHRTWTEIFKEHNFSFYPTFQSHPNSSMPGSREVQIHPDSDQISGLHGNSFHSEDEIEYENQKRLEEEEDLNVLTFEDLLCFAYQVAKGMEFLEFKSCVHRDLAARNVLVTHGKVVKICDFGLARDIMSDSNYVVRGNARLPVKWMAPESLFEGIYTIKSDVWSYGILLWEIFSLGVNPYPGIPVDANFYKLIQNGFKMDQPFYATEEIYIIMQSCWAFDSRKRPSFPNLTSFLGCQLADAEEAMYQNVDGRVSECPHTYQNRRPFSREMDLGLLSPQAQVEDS
Protocol details: KINOMEscan competition binding
Test conditions: compound 10.0 µM
Labelling: kinase still bound, per cent of control reported below 3% becomes class 1; at or above becomes class 0.

In [3]: df
Out[3]:
                               query_smiles  category_label
0  CCN1CCN(C(=O)Cc2ccc(Nc3ncc(F)c(Nc4ccc(C(=O)Nc5ccccc5Cl)cc4)n3)cc2)CC1         class 1
1  O=C(O)c1ccc(Nc2ncc3c(n2)-c2ccc(Cl)cc2C(c2c(F)cccc2F)=NC3)cc1         class 0
2  CNC(=O)c1cc(Oc2ccc(NC(=O)Nc3ccc(Cl)c(C(F)(F)F)c3)cc2)ccn1         class 1
3  CN(C)C/C=C/C(=O)Nc1ccc(C(=O)Nc2cccc(Nc3nccc(-c4cccnc4)n3)c2)cc1         class 0
4  CNC(=O)c1ccc(Nc2cc(Nc3ccccc3S(=O)(=O)C(C)C)c3cc[nH]c3n2)nc1         class 1
